assay: Brain-to-blood drug concentration ratio of mice; format: in vivo; details: mouse, plasma, 5 mg/kg PO, 8 h, read-out: Blood drug concentration
Measured concentration at 8 h accompanies every entry in the list below.
Entry rule: numbers only, all in ng/mL.

{"columns": ["Substance Smiles", "concentration at 8 h / ng/mL"],
 "data": [
  ["CC(F)(F)C(=O)N[C@@H]1CCCC(F)(F)[C@H]1N1Cc2ccc(-c3nnc(C(F)F)o3)cc2S1(=O)=O", 277]
]}

// moving on: another record for concentration at 8 h
Q. What measured concentration at 8 h goes with Cn1cc([C@@H]([C@H](O)c2ccccc2)N2Cc3ccc(-c4nnc(C(F)F)o4)cc3S2(=O)=O)cn1 ?
A. 695
